// data source = ChEMBL document CHEMBL4041531

# Test system: MCF7
# measurement description: Cytotoxicity against human MCF7 cells assessed as reduction in cell viability after 48 hrs by MTT assay
# Type: functional
# assay context: MCF7, 48 h
Lab note: cut-off is 10 µM. Strictly less in GI50 is TRUE. Exactly 10 µM or more is FALSE.

> print(dat)
                                smiles.text  target.or.test.system  qualitative.label
1  COc1cc2ncnc(Nc3ccc(F)c(Cl)c3)c2cc1OCCCN1CCOCC1                   MCF7              FALSE
2  O=C(NCc1ccco1)[C@@H]1Cn2c(cc3ccccc32)C(=O)N1Cc1ccccc1                   MCF7              FALSE
3  O=C(NCc1ccccc1)[C@@H]1Cn2c(cc3ccccc32)C(=O)N1Cc1ccccc1                   MCF7               TRUE
4  O=C(NCc1cccs1)[C@@H]1Cn2c(cc3ccccc32)C(=O)N1Cc1ccccc1                   MCF7               TRUE
5  O=C(NCc1cccc(Cl)c1)[C@@H]1Cn2c(cc3ccccc32)C(=O)N1Cc1ccccc1                   MCF7               TRUE

* * *

# Test system: MDA-MB-468
# measurement description: Cytotoxicity against gefitinib-resistant human MDA-MB-468 cells assessed as cell viability at 30 uM after 48 hrs by MTT assay relative to control
# Assay type: functional
# assay context: MDA-MB-468, 48 h, read-out: Activity
property measured: viability at 30 µM (%)

> print(dat)
                                smiles.text   property.measured  unit.spec  numeric.value
1      COC(=O)[C@H]1Cn2c(cc3ccccc32)C(=O)N1  viability at 30 µM          %           82.4
2  Cc1ccc(CNC(=O)[C@@H]2Cn3c(cc4ccccc43)C(=O)N2)o1  viability at 30 µM          %             43
3  O=C1N[C@H](C(=O)NC2CCCCC2)Cn2c1cc1ccccc12  viability at 30 µM          %           73.1
4  C=CCNC(=O)[C@@H]1Cn2c(cc3ccccc32)C(=O)N1  viability at 30 µM          %           94.7
5  O=C1N[C@H](C(=O)NCc2ccc(F)cc2)Cn2c1cc1ccccc12  viability at 30 µM          %           63.1
6  O=C1N[C@H](C(=O)NCc2ccccc2)Cn2c1cc1ccccc12  viability at 30 µM          %           48.8
7  Nc1cccc(CNC(=O)[C@@H]2Cn3c(cc4ccccc43)C(=O)N2)c1  viability at 30 µM          %           67.7

* * *

# Test system: MDA-MB-468
# measurement description: Cytotoxicity against gefitinib-resistant human MDA-MB-468 cells assessed as reduction in cell viability after 48 hrs by MTT assay
# Format: functional
# assay context: MDA-MB-468, 48 h
property measured: GI50 (µM)

> print(dat)
                                 smiles.text  target.or.test.system  property.measured  numeric.value
 1  O=C(NCc1cccs1)[C@@H]1Cn2c(cc3ccccc32)C(=O)N1Cc1ccccc1             MDA-MB-468               GI50            3.8
 2  O=C(NCc1ccccc1)[C@@H]1Cn2c(cc3ccccc32)C(=O)N1Cc1ccccc1             MDA-MB-468               GI50            7.6
 3  O=C1N[C@H](C(=O)NCc2ccco2)Cn2c1cc1ccccc12             MDA-MB-468               GI50           23.1
 4  O=C1N[C@H](C(=O)NCc2ccccc2)Cn2c1cc1ccccc12             MDA-MB-468               GI50           28.9
 5  O=C1N[C@@H](C(=O)NCc2ccco2)Cn2c1cc1ccccc12             MDA-MB-468               GI50           15.9
 6  O=C(NCc1cccc(Cl)c1)[C@@H]1Cn2c(cc3ccccc32)C(=O)N1Cc1ccccc1             MDA-MB-468               GI50            9.5
 7  O=C1N[C@@H](C(=O)NCc2ccccc2)Cn2c1cc1ccccc12             MDA-MB-468               GI50             24
 8  CN1C(=O)c2cc3ccccc3n2C[C@H]1C(=O)NCc1ccco1             MDA-MB-468               GI50             15
 9  O=C1N[C@H](C(=O)NCc2cccc(Cl)c2)Cn2c1cc1ccccc12             MDA-MB-468               GI50           23.4
10  C=CCN1C(=O)c2cc3ccccc3n2C[C@H]1C(=O)NCc1ccco1             MDA-MB-468               GI50           18.5
11  COc1cc2ncnc(Nc3ccc(F)c(Cl)c3)c2cc1OCCCN1CCOCC1             MDA-MB-468               GI50            9.7
12  O=C(NCc1ccco1)[C@@H]1Cn2c(cc3ccccc32)C(=O)N1Cc1ccccc1             MDA-MB-468               GI50            5.2

* * *

# Test system: MDA-MB-468
# measurement description: Cytotoxicity against gefitinib-resistant human MDA-MB-468 cells assessed as cell viability at 30 uM after 48 hrs by MTT assay relative to control
# Assay type: functional
# assay context: MDA-MB-468, 48 h, read-out: Activity
So basically: is viability at 30 µM under 70%? Then Condition met. Not under? Then Condition not met.

> print(dat)
                                    compound  qualitative.label
 1  O=C1N[C@@H](C(=O)NCc2ccccc2)Cn2c1cc1ccccc12      Condition met
 2  COc1ccc(CNC(=O)[C@@H]2Cn3c(cc4ccccc43)C(=O)N2)cc1  Condition not met
 3         O=C1N[C@H](C(=O)O)Cn2c1cc1ccccc12  Condition not met
 4     CNC(=O)[C@@H]1Cn2c(cc3ccccc32)C(=O)N1  Condition not met
 5  CC(C)NC(=O)[C@@H]1Cn2c(cc3ccccc32)C(=O)N1  Condition not met
 6  O=C1N[C@H](C(=O)NCc2cccc(Cl)c2)Cn2c1cc1ccccc12      Condition met
 7  O=C1N[C@H](C(=O)NCc2ccco2)Cn2c1cc1ccccc12      Condition met
 8  COc1cc2ncnc(Nc3ccc(F)c(Cl)c3)c2cc1OCCCN1CCOCC1 [GEFITINIB]      Condition met
 9  Cc1cccc(CNC(=O)[C@@H]2Cn3c(cc4ccccc43)C(=O)N2)c1      Condition met
10  CCCCCCNC(=O)[C@@H]1Cn2c(cc3ccccc32)C(=O)N1      Condition met
11  O=C1N[C@@H](C(=O)NCc2ccco2)Cn2c1cc1ccccc12      Condition met
12     COC(=O)[C@@H]1Cn2c(cc3ccccc32)C(=O)N1  Condition not met
13  O=C1N[C@H](C(=O)Nc2ccccc2)Cn2c1cc1ccccc12  Condition not met
14  O=C1N[C@H](C(=O)NCCc2ccc(O)cc2)Cn2c1cc1ccccc12      Condition met
15  Nc1ccc(CNC(=O)[C@@H]2Cn3c(cc4ccccc43)C(=O)N2)cc1      Condition met
16  O=C1N[C@H](C(=O)NCc2cccc(C(F)(F)F)c2)Cn2c1cc1ccccc12      Condition met
17  O=C1N[C@H](C(=O)NCc2ccc(Cl)cc2)Cn2c1cc1ccccc12      Condition met
18  O=C1N[C@H](C(=O)NCc2cccs2)Cn2c1cc1ccccc12      Condition met
19  Cc1ccc(CNC(=O)[C@@H]2Cn3c(cc4ccccc43)C(=O)N2)cc1      Condition met
20   CCCNC(=O)[C@@H]1Cn2c(cc3ccccc32)C(=O)N1  Condition not met
